Source listed as patent US20070232594A1.

- Study Target: human V2 receptor (Homo sapiens)
- Test Name: Study to confirm the agonism of human V2 receptor (intracellular Ca2+, HEK293 cells coexpressing human V2 receptor and Gqs chimeric protein)
- Details: intracellular Ca2+, HEK293 cells coexpressing human V2 receptor and Gqs
Simple rule here: EC50 less than 40 nM is MET, otherwise NOT MET.

Compound | Label Class
Cc1nnc(CN2Cc3ccccc3N(C(=O)c3ccc(-n4cccn4)nc3)CC2=O)o1 [Example 1-29] | NOT MET
O=C1CN(C(=O)c2ccc(N3CCCC3)cc2Cl)c2ccccc2CN1Cc1nnn[nH]1 [Example 15] | MET
CCOC(=O)CN1Cc2ccccc2N(C(=O)c2ccc(N3CCCC3)cc2Cl)CC1=O [Example 1-7] | MET
Cc1nnc(CN2Cc3ccccc3N(C(=O)c3ccc(OCCCO)nc3C)CC2=O)o1 [Example 31-8] | NOT MET
Cc1cnc(CN2Cc3ccccc3N(C(=O)c3ccc(OCCO)cc3Cl)CC2=O)o1 [Example 2-21] | MET

Let us examine a further case.
query: A record lists O=C(O)CN1Cc2ccccc2N(C(=O)c2ccc(OCC(F)(F)F)cc2Cl)CC1=O [Example 2-5] . Is its EC50 below 40 nM?
result: MET

----------
Record type: Ki measurement. Applies to: human V2 receptor (Homo sapiens, UniProt P30518)
Give the value, in units of nM, as a plain number.

Molecular String | Ki (nM)
CCOC(=O)CN1Cc2ccccc2N(C(=O)c2ccc(N3CCCC3)cc2Cl)CC1=O | 86.6

Form field, Ki with human V2 receptor (Homo sapiens, UniProt P30518), item `O=C1CN(C(=O)c2ccc(N3CCCC3)cc2Cl)c2ccccc2CN1Cc1nnn[nH]1` : 97.7

----------
- Study Target: human V2 receptor (Homo sapiens, UniProt P30518)
- Sequence (P30518 whole entry): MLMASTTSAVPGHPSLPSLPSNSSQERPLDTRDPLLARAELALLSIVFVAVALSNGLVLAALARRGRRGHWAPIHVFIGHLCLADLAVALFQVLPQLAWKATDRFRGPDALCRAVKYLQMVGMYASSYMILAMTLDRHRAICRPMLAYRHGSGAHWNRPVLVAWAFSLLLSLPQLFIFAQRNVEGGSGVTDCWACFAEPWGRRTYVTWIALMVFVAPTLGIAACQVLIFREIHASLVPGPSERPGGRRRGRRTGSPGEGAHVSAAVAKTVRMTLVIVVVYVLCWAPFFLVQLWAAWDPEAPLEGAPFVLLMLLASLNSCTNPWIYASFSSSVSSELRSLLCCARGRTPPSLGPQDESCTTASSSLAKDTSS
- Test Name: Study to confirm the agonism of human V2 receptor (intracellular Ca2+, HEK293 cells coexpressing human V2 receptor and Gqs chimeric protein)
- Assay type: cell-based
- Parameters: expressed in transfected cells; host or cells: HEK293 cells (American Type Culture Collection), transient transfection with pCI-neo/hV2 and pLEC-Gqs5
- Details: maximum response relative to AVP = 1
- Procedure: The Study to Confirm the Agonism of Human V2 Receptor […] Human V2 receptor couples with Gs protein, one of the G-coupling protein, and consequently produces cyclic adenosine 3′, 5′-monophosphate (cAMP) via adenylate cyclase. […] The responses of the test compounds for human V2 receptor were quantified by measuring this intracellular Ca^2+. […] The intrinsic activities (IA) of the test compounds were calculated from the maximum response of the test compounds as that of AVP was considered to be 1. […]
# IA (intrinsic activity) per entry

GET /value?item= Cc1cnc(CN2Cc3ccccc3N(C(=O)c3ccc(OCCO)cc3Cl)CC2=O)o1 [Example 2-21] &field=IA (intrinsic activity) returns 1.09

// recorded IA (intrinsic activity) for O=C1CN(C(=O)c2ccc(N3CCCC3)cc2Cl)c2ccccc2CN1Cc1nnn[nH]1 [Example 15] : 1.09

Recorded result, Cc1nnc(CN2Cc3ccccc3N(C(=O)c3ccc(OCCCO)nc3C)CC2=O)o1 [Example 31-8] , IA (intrinsic activity): 1.18
